Source of measurements: patent US20030207830A1

target: Dictyostelium discoideum NDP kinase (Dd-NDPK), wild type (Dictyostelium discoideum, UniProt P22887); construct: made in house; experiment: Pre-steady-state phosphotransfer, fluorescence stopped-flow; assay type: biochemical; details: catalytic efficiency of phosphotransfer, wt
Sequence (P22887 whole entry): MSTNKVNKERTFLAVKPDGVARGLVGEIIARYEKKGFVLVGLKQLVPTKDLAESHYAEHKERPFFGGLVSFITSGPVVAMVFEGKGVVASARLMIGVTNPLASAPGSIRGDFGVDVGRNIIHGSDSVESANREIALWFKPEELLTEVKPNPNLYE
In this section, each of the molecules is paired with its reported k2/Ks.
Output should be the measured figure followed by the unit it is expressed in.

Input line: Looking for the measured k2/Ks of Cc1cn([C@H]2C[C@H](O)[C@@H](COP(=O)(O)OP(=O)(O)OP(=O)(O)O)O2)c(=O)[nH]c1=O , can you help?
Output line: 5.7e+06 M⁻¹ s⁻¹

Input line: Another molecule: Nc1ncnc2c1ncn2[C@H]1CC[C@@H](COP(=O)(O)OP(=O)(O)OP(=O)(O)O)O1
Output line: 1300 M⁻¹ s⁻¹

Input line: And for Nc1ncnc2c1ncn2[C@@H]1O[C@H](COP(=O)(O)OP(=O)(O)OP(=O)(O)O)[C@@H](O)[C@H]1O ?
Output line: 4.5e+06 M⁻¹ s⁻¹

Moving on to the next molecule.
Input line: What measured k2/Ks goes with Nc1nc2c(ncn2[C@@H]2O[C@H](COP(=O)(O)OP(=O)(O)OP(=O)(O)O)[C@@H](O)[C@H]2O)c(=O)[nH]1 ?
Output line: 8e+06 M⁻¹ s⁻¹

----------
biological target: human NDP kinase A (NDPK-A) variant N115S, SEQ ID NO: 2 (Homo sapiens, UniProt P15531, N115S); construct: made in house; host or cells: E. coli; experiment: Pre-steady-state phosphotransfer, fluorescence stopped-flow; format: biochemical; conditions: catalytic efficiency of phosphotransfer, N115S, pre-steady state
Sequence (P15531 whole entry N115S): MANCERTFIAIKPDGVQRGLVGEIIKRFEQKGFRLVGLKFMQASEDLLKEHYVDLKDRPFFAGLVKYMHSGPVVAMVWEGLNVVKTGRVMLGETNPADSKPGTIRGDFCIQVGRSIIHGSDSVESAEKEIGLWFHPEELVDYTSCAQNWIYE
MEASUREMENT NAME: k2/Ks
// unit must come after the numeric part

Below: 2 compounds and their reported k2/Ks.
Input line: Using the record for Cc1cn([C@H]2CC[C@@H](COP(=O)(O)OP(=O)(O)OP(=O)(O)O)O2)c(=O)[nH]c1=O [dideoxy-TTP] , report its k2/Ks.
Output line: 170 M⁻¹ s⁻¹

Input line: # iterate: Nc1nc2c(ncn2[C@H]2C[C@H](O)[C@@H](COP(=O)(O)OP(=O)(O)OP(=O)(O)O)O2)c(=O)[nH]1 [dGTP]
Output line: 240000 M⁻¹ s⁻¹

***
Input line: Entry Nc1nc2c(ncn2[C@H]2CC[C@@H](COP(=O)(O)OP(=O)(O)OP(=O)(O)O)O2)c(=O)[nH]1 [ddGTP, dideoxy-GTP] : reported k2/Ks = ?
Output line: 750 M⁻¹ s⁻¹

Input line: Note, next up: Nc1nc2c(ncn2COCCOP(=O)(O)OP(=O)(O)OP(=O)(O)O)c(=O)[nH]1 [acyclovirTP]
Output line: 250 M⁻¹ s⁻¹

----------
target: Dictyostelium discoideum NDP kinase (Dd-NDPK) variant N119S, SEQ ID NO: 1 (Dictyostelium discoideum, UniProt P22887, N119S); construct: made in house; assay: Pre-steady-state phosphotransfer, fluorescence stopped-flow; format: biochemical; conditions: catalytic efficiency of phosphotransfer, N119S, pre-steady state
Sequence (P22887 whole entry N119S): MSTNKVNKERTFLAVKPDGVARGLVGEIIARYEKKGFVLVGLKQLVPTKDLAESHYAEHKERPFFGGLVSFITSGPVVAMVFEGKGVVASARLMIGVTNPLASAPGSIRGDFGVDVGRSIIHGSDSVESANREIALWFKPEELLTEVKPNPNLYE
MEASUREMENT NAME: log10 of k2/Ks (log10 of the value in M⁻¹ s⁻¹)
Friendly reminder: values = log10 of k2/Ks, unit M⁻¹ s⁻¹.

Field: example entries. Status: answers known.
Input line: Query (molecule): Nc1ncnc2c1ncn2[C@H]1CC[C@@H](COP(=O)(O)OP(=O)(O)OP(=O)(O)O)O1 ; field requested: log10 of k2/Ks
Output line: 3.43

Input line: // query: Cc1cn([C@H]2C[C@H](O)[C@@H](COP(=O)(O)OP(=O)(O)OP(=O)(O)O)O2)c(=O)[nH]c1=O
Output line: 5.63

Input line: Also need Cc1cn([C@H]2C[C@H](N=[N+]=[N-])[C@@H](COP(=O)(O)OP(=O)(O)OP(=O)(O)O)O2)c(=O)[nH]c1=O , thanks.
Output line: 3.04

Input line: Moving on to Nc1nc2c(ncn2[C@@H]2O[C@H](COP(=O)(O)OP(=O)(O)OP(=O)(O)O)[C@@H](O)[C@H]2O)c(=O)[nH]1
Output line: 5.85

Input line: Would you kindly repeat that for Nc1nc2c(ncn2COCCOP(=O)(O)OP(=O)(O)OP(=O)(O)O)c(=O)[nH]1 ?
Output line: 3.22

Input line: Input Nc1ncnc2c1ncn2[C@@H]1O[C@H](COP(=O)(O)OP(=O)(O)OP(=O)(O)O)[C@@H](O)[C@H]1O
Output line: 5.40

# input for lookup
Input line: Which value of log10 of k2/Ks has been reported for Nc1nc2c(ncn2[C@H]2CC[C@@H](COP(=O)(O)OP(=O)(O)OP(=O)(O)O)O2)c(=O)[nH]1 in the records?
Output line: 3.54

----------
biological target: human NDP kinase A (NDPK-A) variant L55H-N115S, SEQ ID NO: 3 (Homo sapiens, UniProt P15531, L55H/N115S); construct: made in house; host or cells: E. coli; test: Pre-steady-state phosphotransfer, fluorescence stopped-flow; format: biochemical; conditions: catalytic efficiency of phosphotransfer, L55H-N115S, pre-steady state
Sequence (P15531 whole entry L55H/N115S): as the sequence (P15531 whole entry N115S) above, with L55H counted along it
MEASUREMENT NAME: k2/Ks
Just the number plus its unit, please.

Completed entries (count: 4):
Input line: State the recorded k2/Ks for this entry: Nc1nc2c(ncn2COCCOP(=O)(O)OP(=O)(O)OP(=O)(O)O)c(=O)[nH]1
Output line: 2600 M⁻¹ s⁻¹

Input line: Now this one: Cc1cn([C@H]2C[C@H](O)[C@@H](COP(=O)(O)OP(=O)(O)OP(=O)(O)O)O2)c(=O)[nH]c1=O
Output line: 450000 M⁻¹ s⁻¹

Input line: Continue with Cc1cn([C@H]2C[C@H](N=[N+]=[N-])[C@@H](COP(=O)(O)OP(=O)(O)OP(=O)(O)O)O2)c(=O)[nH]c1=O
Output line: 6770 M⁻¹ s⁻¹

Input line: Could you do the same for Nc1nc2c(ncn2[C@H]2C[C@H](O)[C@@H](COP(=O)(O)OP(=O)(O)OP(=O)(O)O)O2)c(=O)[nH]1 , please?
Output line: 500000 M⁻¹ s⁻¹

More entries:
Input line: Fill in the blank: the reported k2/Ks of Cc1cn([C@H]2CC[C@@H](COP(=O)(O)OP(=O)(O)OP(=O)(O)O)O2)c(=O)[nH]c1=O is ____.
Output line: 2800 M⁻¹ s⁻¹

Input line: Same thing, different compound: Nc1nc2c(ncn2[C@H]2CC[C@@H](COP(=O)(O)OP(=O)(O)OP(=O)(O)O)O2)c(=O)[nH]1
Output line: 4200 M⁻¹ s⁻¹

----------
biological target: Dictyostelium NDP Kinase N119S (Dictyostelium discoideum, UniProt P22887, N119S); construct: made in house; assay: Pre-steady-state fluorescence stopped-flow phosphotransfer from nucleoside triphosphates, N119S Dd-NDPK; format: biochemical; conditions: pre-steady state, stopped-flow; average of three determinations
Sequence (P22887 whole entry N119S): as the sequence (P22887 whole entry N119S) above
MEASUREMENT NAME: k2/Ks N119S (catalytic efficiency of phosphotransfer) (M⁻¹ s⁻¹)
State just the number; it will be interpreted in M⁻¹ s⁻¹.

Input line: Notebook: pull reported k2/Ks N119S (catalytic efficiency of phosphotransfer) for Dictyostelium NDP Kinase N119S (Dictyostelium discoideum, UniProt P22887, N119S), entry Nc1ncnc2c1ncn2[C@H]1CC[C@@H](COP(=O)(O)OP(=O)(O)OP(=O)(O)O)O1 [ddATP]
Output line: 2700

Next up:
Input line: Notebook entry, Dictyostelium NDP Kinase N119S (Dictyostelium discoideum, UniProt P22887, N119S) assay: k2/Ks N119S (catalytic efficiency of phosphotransfer) of Nc1nc2c(ncn2[C@@H]2O[C@H](COP(=O)(O)OP(=O)(O)OP(=O)(O)O)[C@@H](O)[C@H]2O)c(=O)[nH]1 [GTP] = ?
Output line: 700000

----------
biological target: Dictyostelium discoideum NDP kinase inactive variant EI (H122G-F64W) (Dictyostelium discoideum, UniProt P22887, F64W/H122G); test: biochemical
Sequence (P22887 whole entry F64W/H122G): as the sequence (P22887 whole entry) above, with F64W, H122G counted along it
Recorded Kd values for a group of compounds are listed next.
Lab book: enter the figure in µM, no units written.

Check out these entries, answers already filled in.
Input line: Any idea what its Kd is? The compound is Cc1cn([C@H]2C[C@H](N=[N+]=[N-])[C@@H](COP(=O)(O)OP(=O)(O)OP(=O)(O)O)O2)c(=O)[nH]c1=O
Output line: 30

Input line: How about this compound: Cc1cn([C@H]2C[C@H](O)[C@@H](COP(=O)(O)OP(=O)(O)OP(=O)(O)O)O2)c(=O)[nH]c1=O
Output line: 1.2

Input line: Do the same for Nc1nc2c(ncn2COCCOP(=O)(O)OP(=O)(O)OP(=O)(O)O)c(=O)[nH]1 please
Output line: 190

Input line: And the next one, Nc1nc2c(ncn2[C@@H]2O[C@H](COP(=O)(O)OP(=O)(O)OP(=O)(O)O)[C@@H](O)[C@H]2O)c(=O)[nH]1 ?
Output line: 0.15

Input line: Entry Nc1ncnc2c1ncn2[C@@H]1O[C@H](COP(=O)(O)OP(=O)(O)OP(=O)(O)O)[C@@H](O)[C@H]1O please
Output line: 0.2

Next:
Input line: Sample Nc1nc2c(ncn2[C@H]2CC[C@@H](COP(=O)(O)OP(=O)(O)OP(=O)(O)O)O2)c(=O)[nH]1 — what was its Kd?
Output line: 3.5

Input line: Follow-up item: Nc1ncnc2c1ncn2[C@H]1CC[C@@H](COP(=O)(O)OP(=O)(O)OP(=O)(O)O)O1
Output line: 4.6
